Item-by-item account of log10(EC50)
# measurement-target: Sphingosine 1-phosphate receptor 1 (Homo sapiens, UniProt P21453)
# Sequence (P21453 whole entry): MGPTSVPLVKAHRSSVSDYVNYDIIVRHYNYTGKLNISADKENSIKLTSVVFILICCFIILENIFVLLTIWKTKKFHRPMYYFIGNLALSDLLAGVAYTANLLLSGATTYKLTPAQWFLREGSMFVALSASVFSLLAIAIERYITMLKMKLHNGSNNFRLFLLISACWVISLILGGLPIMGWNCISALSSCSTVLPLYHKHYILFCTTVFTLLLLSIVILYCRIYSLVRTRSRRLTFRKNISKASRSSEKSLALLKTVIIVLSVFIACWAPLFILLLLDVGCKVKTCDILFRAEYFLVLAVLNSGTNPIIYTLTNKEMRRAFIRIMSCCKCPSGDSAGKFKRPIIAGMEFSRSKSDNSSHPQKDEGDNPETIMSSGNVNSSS
# experimental-protocol: Agonist activity at human S1P1 receptor expressed in human U2OS cells assessed as beta-arrestin-mediated receptor internalization by beta-lactamase reporter assay
# Assay type: functional, cell-based
# condition-set: read-out: pEC50 (converted)
Recorded EC50 (log10, nM)

Look up and report measured log10(EC50) for this entry: `CCCN(C(=O)c1ccc(Cl)cc1)c1nnc(-c2cccc(F)c2)s1`
2.80

Look up and report measured log10(EC50) for this entry: `CCCCN(C(=O)c1ccccc1OC)c1nnc(-c2cccnc2)s1`
2.80

Look up and report measured log10(EC50) for this entry: `CCCCN(C(=O)c1ccc(C)cc1)c1nnc(-c2cccnc2)s1`
2.30

Look up and report measured log10(EC50) for this entry: `CCCCN(C(=O)c1ccc(C(F)(F)F)cc1)c1nnc(-c2ccc(CN(C)C)cc2)s1`
1.50

Look up and report measured log10(EC50) for this entry: `CCCCN(C(=O)c1cccc(C)c1)c1nnc(-c2cccnc2)s1`
2.80

---
Look up and report measured log10(EC50) for this entry: `CCCCN(C(=O)c1ccc(C(F)(F)F)cc1)c1nnc(-c2ccc(CN3CCNCC3)cc2)s1`
1.70

Look up and report measured log10(EC50) for this entry: `CCCCN(C(=O)c1ccc(OC)cc1)c1nnc(-c2cccnc2)s1`
3.10

Look up and report measured log10(EC50) for this entry: `CCCCN(C(=O)c1ccc(F)cc1)c1nnc(-c2cccnc2)s1`
3.10

Look up and report measured log10(EC50) for this entry: `CCCCN(C(=O)c1ccccc1F)c1nnc(-c2cccnc2)s1`
2.50

Look up and report measured log10(EC50) for this entry: `CCCCN(C(=O)c1cccc(F)c1)c1nnc(-c2cccnc2)s1`
3.10
